# TARGET_OR_SYSTEM: 5-lipoxygenase (Rattus norvegicus, UniProt P12527)
# Construct: pre-labelled rat peritoneal neutrophils; endogenous in cells
# Sequence (P12527 whole entry): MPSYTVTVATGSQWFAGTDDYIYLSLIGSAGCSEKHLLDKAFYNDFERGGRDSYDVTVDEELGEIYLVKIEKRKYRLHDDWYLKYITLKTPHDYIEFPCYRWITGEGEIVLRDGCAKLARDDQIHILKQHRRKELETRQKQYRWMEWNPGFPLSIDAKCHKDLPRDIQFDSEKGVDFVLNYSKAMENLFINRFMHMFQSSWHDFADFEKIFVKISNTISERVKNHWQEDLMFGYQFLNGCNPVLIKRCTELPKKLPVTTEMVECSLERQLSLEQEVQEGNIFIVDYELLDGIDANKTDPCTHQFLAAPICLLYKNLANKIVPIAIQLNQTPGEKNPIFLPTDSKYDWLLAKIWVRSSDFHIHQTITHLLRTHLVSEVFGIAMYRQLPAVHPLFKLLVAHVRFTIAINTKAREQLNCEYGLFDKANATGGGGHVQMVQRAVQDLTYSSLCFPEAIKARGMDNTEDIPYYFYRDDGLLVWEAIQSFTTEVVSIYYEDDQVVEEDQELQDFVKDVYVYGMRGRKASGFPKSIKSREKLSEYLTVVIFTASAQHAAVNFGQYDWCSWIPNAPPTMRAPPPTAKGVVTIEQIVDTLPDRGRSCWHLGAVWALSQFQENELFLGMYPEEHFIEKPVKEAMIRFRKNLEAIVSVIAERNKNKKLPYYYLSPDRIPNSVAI
# ASSAY: 5-LIPOX: inhibition of Ca++ ionophore (A23187)-induced release of 5-lipoxygenase products from [14C]-arachidonic acid pre-labelled rat peritoneal neutrophils
# CONDITION_SET: A23187-induced release of leukotriene D4 and 5-HETE, determined graphically from dose-response curves, read-out: 5-LIPOX: concentration of test compound causing 50% inhibition of control response
Counter-ions that a name gives are not always drawn.
Quick reference: IC50 of the listed items.
Give the value in µM but do not write µM after it.

Some compounds with known IC50 results, for comparison:
>>> result_value("Oc1ccc(SC2CCCc3cccnc32)cc1 (stereo not shown)")
14.1
>>> result_value("CCOc1ccc(SC2CCCc3cccnc32)cc1 (stereo not shown) [Example 18, hydrochloride]")
11.2
>>> result_value("Nc1ccc(SC2CCCc3cccnc32)cc1 (stereo not shown)")
25
>>> result_value("NS(=O)(=O)c1ccc(SC2CCCc3cccnc32)cc1 (stereo not shown)")
26
>>> result_value("CCc1ccc(SC2CCCc3cccnc32)cc1 (stereo not shown) [Example 15, hydrochloride]")
4
>>> result_value("O=[N+]([O-])c1cc(SC2CCCc3cccnc32)ccc1O (stereo not shown)")
33
>>> result_value("c1cnc2c(c1)CCCC2Sc1ccc2ccccc2c1 (stereo not shown) [Example 9, hydrochloride]")
2.3
>>> result_value("CC(=O)Oc1ccc(SC2CCCc3cccnc32)cc1 (stereo not shown) [Example 19, hydrochloride]")
45

Consider the additional compound presented here.
The reported IC50 value, 5-lipoxygenase (Rattus norvegicus, UniProt P12527), for COC(=O)c1ccc(SC2CCCc3cccnc32)cc1 (stereo not shown) [Example 20, hydrochloride] reads 18.6
